B1: DnaJ homolog subfamily C member 2, residues 451 to 503; numbered along this chain, Q99543 (parent)
chain: SKNWSEDDLQLLIKAVNLFPAGTNSRWEVIANYMNIHSSSGVKRTAKDVIGKA

Variants of: B1
Assay Name: abundance fitness (aPCA) (normalised: wild type 0, dead -1); higher = more abundant; growth selection in yeast, the domain comes from the species named
Conditions: Homo sapiens
# Lookup of reported abundance fitness keyed by entry
The answer should be written as a number, with no unit following it.

Please review the entries below; each comes with its answer.
W27C = -0.261
F19N = -0.803
V16H = -0.25
L18S = -0.273
K43R = -0.045

Ask: Given V29L , state its recorded abundance fitness.
Result: -0.051

Ask: Given L18P , state its recorded abundance fitness.
Result: -0.807

Ask: Given Q10N , state its recorded abundance fitness.
Result: -0.083

Ask: Given G22A , state its recorded abundance fitness.
Result: -0.064

Ask: Given A31Y , state its recorded abundance fitness.
Result: -1.08

Ask: Given W27V , state its recorded abundance fitness.
Result: -0.444

Ask: Given S39G , state its recorded abundance fitness.
Result: 0.016
